# Test system: Pancreatin
# experiment: Protease stability in simulated intestinal fluid (Pancreatin-SIF, FaSSIF)
# Type: in vitro ADME
# measurement.conditions: 240 min, 1 μM peptide, 37° C., read-out: FaSSIF 240 (min), remaining percent of peptide
Starred links: 1 amine or outer side, 2 acyl side, 3 side chain; linkers in the order of their positions; H or OH if unused. Positions of bridges follow the written chain, without caps; N, C: chain ends. Non-standard residues stand in square brackets, D forms with d. Residues, ends and D or L forms follow the SMILES beside them. *: point of attachment. X6 = O=C(CCC(=O)[*:3])N[C@@H](CS[*:2])C(=O)[*:1]; Trp(7-Me) = Cc1cccc2c(C[C@H](N)C(=O)O)c[nH]c12; X1 = O=C(CCCCN[*:3])N[C@@H](CS[*:2])C(=O)[*:1]; αMeLys(Me2) = CN(C)CCCC[C@](C)(N)C(=O)O; X2 = CN(C)[C@@H](CCCCN[*:1])C(=O)[*:2]; 2Nal = N[C@@H](Cc1ccc2ccccc2c1)C(=O)O; d2Nal = N[C@H](Cc1ccc2ccccc2c1)C(=O)O; 3Pal = N[C@@H](Cc1cccnc1)C(=O)O; αMeL = CC(C)C[C@](C)(N)C(=O)O; Suc = O=C(CCC(=O)[*:2])[*:1]; Thp = NC1(C(=O)O)CCOCC1; Me2NCH2CH2 = CN(C)CC*; Aib = CC(C)(N)C(=O)O; Ava = NCCCCC(=O)O; Sar = CNCC(=O)O
reported.property: remaining at 4 h, 1 µM (%)
Number only, in %; omit the unit.

Reference set (5 entries):
| compound | reported.property | units.of.measure | numeric.result |
| --- | --- | --- | --- |
| CC(=O)NCCCC[C@@H]1NC(=O)[C@H](Cc2c[nH]c3ccccc23)NC(=O)[C@@H](N(C)C)CCCCNC(=O)[C@@H]2CSSC[C@H](NC1=O)C(=O)N[C@@H](Cc1ccc(OCCN(C)C)cc1)C(=O)N[C@@H](Cc1ccc3ccccc3c1)C(=O)N[C@@](C)(CCCCN(C)C)C(=O)N[C@H](C(=O)N[C@@H](CC(N)=O)C(=O)N[C@@H](Cc1cccnc1)C(=O)N(C)CC(N)=O)CCC(=O)NCCCCC(=O)N2 [compound 36] ([Ava]C[X2]WK(Ac)CY(Me2NCH2CH2)[2Nal][αMeLys(Me2)]EN[3Pal][Sar]-NH2; disulfide 2-6; lactam N-10) | remaining at 4 h, 1 µM | % | 92 |
| CC[C@H](C)[C@H](NC(=O)[C@H](Cc1cccnc1)NC(=O)[C@H](CC(N)=O)NC(=O)[C@@H]1CCC(=O)NCCCCC(=O)N[C@H]2CSSC[C@H](NC(=O)[C@H](CCCCNC(C)=O)NC(=O)[C@H](Cc3c[nH]c4ccccc34)NC(=O)[C@H]([C@@H](C)O)NC(=O)[C@H](CC(N)=O)NC2=O)C(=O)N[C@@H](Cc2ccc(OCCN(C)C)cc2)C(=O)N[C@@H](Cc2ccc3ccccc3c2)C(=O)NC(C)(C)C(=O)N1)C(N)=O [compound 37] ([Ava]CNTWK(Ac)CY(Me2NCH2CH2)[2Nal][Aib]EN[3Pal]I-NH2; disulfide 2-7; lactam N-11) | remaining at 4 h, 1 µM | % | 63 |
| CC(=O)NCCCC[C@@H]1NC(=O)[C@H](Cc2c[nH]c3c(C)cccc23)NC(=O)[C@H]([C@@H](C)O)NC(=O)[C@H](CC(N)=O)NC(=O)[C@@H]2CSSC[C@H](NC1=O)C(=O)N[C@@H](Cc1ccc(OCCN(C)C)cc1)C(=O)N[C@@H](Cc1ccc3ccccc3c1)C(=O)N[C@@](C)(CC(C)C)C(=O)N[C@H](C(=O)N[C@@H](CC(N)=O)C(=O)N[C@@H](Cc1c[nH]cn1)C(N)=O)CCCCNC(=O)CCC(=O)N2 [compound 23] (CNT[Trp(7-Me)]K(Ac)CY(Me2NCH2CH2)[2Nal][αMeL]KNH-NH2; disulfide 1-6; linker N-10 via Suc) | remaining at 4 h, 1 µM | % | 67 |
| CC(=O)N[C@H]1CCCCNC(=O)[C@@H]2CSSC[C@H](NC(=O)[C@H](CCC(N)=O)NC(=O)[C@H](Cc3c[nH]c4ccccc34)NC1=O)C(=O)N[C@@H](Cc1ccc(OCCN(C)C)cc1)C(=O)N[C@@H](Cc1ccc3ccccc3c1)C(=O)N[C@@](C)(CC(C)C)C(=O)N[C@H](C(=O)N[C@@H](CC(N)=O)C(=O)N[C@@H](CC(N)=O)C(N)=O)CCC(=O)NCCCCC(=O)N2 [compound 28] (Ac-KWQCY(Me2NCH2CH2)[2Nal][αMeL]ENN-NH2; linker 1-4-8 via X1) | remaining at 4 h, 1 µM | % | 65 |
| CC(C)C[C@]1(C)NC(=O)[C@H](Cc2ccc3ccccc3c2)NC(=O)[C@H](Cc2ccc(OCCN(C)C)cc2)NC(=O)[C@@H]2CSSC[C@H](NC(=O)CCCCNC(=O)CC[C@@H](C(=O)N[C@@H](CC(N)=O)C(=O)N[C@@H](CC(N)=O)C(N)=O)NC1=O)C(=O)N[C@@H](CC(N)=O)C(=O)N[C@@H]([C@@H](C)O)C(=O)N[C@@H](Cc1c[nH]c3ccccc13)C(=O)N[C@@H](CCC(N)=O)C(=O)N2 [compound 27] ([Ava]CNTWQCY(Me2NCH2CH2)[2Nal][αMeL]ENN-NH2; disulfide 2-7; lactam N-11) | remaining at 4 h, 1 µM | % | 73 |

**Query** Query (compound): CC(=O)NCCCC[C@@H]1NC(=O)[C@H](Cc2c[nH]c3c(C)cccc23)NC(=O)[C@@H](NC(C)=O)CCCCNC(=O)[C@@H]2CSSC[C@H](NC1=O)C(=O)N[C@@H](Cc1ccc(OCCN(C)C)cc1)C(=O)N[C@@H](Cc1ccc3ccccc3c1)C(=O)NC1(CCOCC1)C(=O)N[C@H](C(=O)N[C@@H](CC(N)=O)C(=O)N[C@@H](Cc1cccnc1)C(=O)N(C)CC(N)=O)CCCCNC(=O)CCC(=O)N2 [compound 105] (Ac-K[Trp(7-Me)]K(Ac)CY(Me2NCH2CH2)[2Nal][Thp]KN[3Pal][Sar]-NH2; linker 1-4-8 via X6) ; field requested: remaining at 4 h, 1 µM
**Result** 77

**Query** Now the same for CC(=O)NCCCC[C@@H]1NC(=O)[C@H](Cc2c[nH]c3ccccc23)NC(=O)[C@@H](NC(C)=O)CCCCNC(=O)[C@@H]2CSSC[C@H](NC1=O)C(=O)N[C@@H](Cc1ccc(OCCN(C)C)cc1)C(=O)N[C@H](Cc1ccc3ccccc3c1)C(=O)N[C@@](C)(CCCCN(C)C)C(=O)N[C@H](C(=O)N[C@@H](CC(N)=O)C(=O)N[C@@H](Cc1cccnc1)C(=O)N(C)CC(N)=O)CCC(=O)NCCCCC(=O)N2 [compound 59] (Ac-KWK(Ac)CY(Me2NCH2CH2)[d2Nal][αMeLys(Me2)]EN[3Pal][Sar]-NH2; linker 1-4-8 via X1)
**Result** 97
